System: WaGa
Assay: qHTS assay to identify novel small-molecules to repurpose for Merkel cell carcinoma treatment (AID 1296009); further: nearly all actives have a fitted effect of over 60% in size; further: potency means the concentration at half of the fitted maximal effect
Settings: MCC and control cell lines, CellTiter-Glo viability, 72 h; series mostly up to 46 µM
Results filed as inconclusive are left out. Active and inactive are the calls of the source. The call rests on the fitted dose curve; in most records, active means well fitted inhibition curve with a large enough effect; inconclusive means small, poorly fitted or top-dose-only effect; inactive means flat fitted curve, though single readings scatter.
quantity: Potency

Before answering, review these 4 worked examples.
CC(C)c1ccc(Cn2ccc3c4c(N)nc(NC5CC5)nc4ccc32)cc1 ... 9.35 µM (active)
O=C(CCCCCCC(=O)Nc1ccc([C@H]2O[C@@H](CSc3nc(-c4ccccc4)c(-c4ccccc4)o3)C[C@@H](c3ccc(CO)cc3)O2)cc1)NO ... 7.43 µM (active)
CC(C)Nc1cc(C(F)(F)F)cc2nc(NC(=O)c3cccnc3)nn12 ... inactive
COc1cc(Nc2ncc(F)c(Nc3ccc4c(n3)N(COP(=O)(O)O)C(=O)C(C)(C)O4)n2)cc(OC)c1OC ... inactive

Please look at the following compound next.
What measured Potency goes with `COc1cccc2c(NCc3ccccc3)nc(-n3c(N)nc4ccccc43)nc12` ?
9.35 µM (active)

---

Assay: qHTS of pediatric cancer cell lines to identify multiple opportunities for drug repurposing: Primary screen for SK-N-SH cells (AID 1347098); further: nearly all actives have a fitted effect of over 65% in size
Conditions: SK-N-SH viability, CellTiter-Glo luminescence, 48 h; series mostly up to 57 µM
Records with an inconclusive call do not appear. Active and inactive are the calls of the source. Calls come from the whole dose curve; as a rule, active = well fitted cell-killing curve with a large enough effect; inconclusive = small, poorly fitted or top-dose-only effect; inactive = no such curve, though single readings can be large or run the other way.
Pick one and only one: active, inactive

In this assay, the call recorded for `O=C(Nc1cc(C(F)(F)F)cc(C(F)(F)F)c1)c1cc(Cl)ccc1O` was what?
active

Also need `Cc1ccc(NC(=O)C2(c3ccc4c(c3)OC(F)(F)O4)CC2)nc1-c1cccc(C(=O)O)c1` , thanks.
active

Also need `CC1=C(CO)C(=O)O[C@@H]([C@@H](C)[C@H]2CC[C@H]3[C@@H]4C[C@H]5O[C@]56[C@@H](O)C=CC(=O)[C@]6(C)[C@@H]4CC[C@]23C)C1` , thanks.
active

Also need O=c1[nH]c(=O)n(C2CCCO2)cc1F (configuration not stated) , thanks.
inactive

Also need CC(NCc1ccc2c(c1)nc(NC(=O)c1ccc(-c3cn[nH]c3)s1)n2CC(C)(C)O)C(C)(C)C (configuration not stated) , thanks.
active

---

Test: qHTS profiling of the MIPE4 collection as inhibitors of Plasmodium falciparum (3D7) proliferation (AID 743344);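 further: scaled between DMSO vehicle wells and 0.29 µM artemisinin as full inhibition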
Details: P. falciparum 3D7 in erythrocytes, SYBR Green DNA fluorescence, 72 h; at 28.5 µM (top of the series) unless noted
# label = label 1 if parasite growth, % of DMSO control >= 9% else label 0

CC(C)c1ccccc1Cc1cc(C(=O)Nc2ccc(S(=O)(=O)c3ccccc3C(C)(C)C)cc2)c(O)c(O)c1O ... label 0
COc1ccc(OC)c(-c2nnc3ccc(-c4ccc(OC)c(O[C@@H]5CCOC5)c4)nn23)c1 ... label 0
CC[C@@]1(O)C(=O)OCc2c1cc1n(c2=O)Cc2cc3cc(O)ccc3nc2-1 ... label 1
CC(C)c1ccc(Cn2ccc3c4c(N)nc(NC5CC5)nc4ccc32)cc1 ... label 0
Cc1cccc(C=NNc2cc(N3CCOCC3)nc(OCCc3ccccn3)n2)c1 ... label 0
COc1cc2ncn(-c3cc(OCc4ccccc4C(F)(F)F)c(C(N)=O)s3)c2cc1OC ... label 1
Cn1cc(-c2ccncc2)c(-c2ccc(OCc3ccc4ccccc4n3)cc2)n1 ... label 1
CCCCOc1c(C(=O)c2c(F)cc(C)cc2F)cnc2n[nH]cc12 ... label 1

Decide: is the reported value of parasite growth, % of DMSO control for `Cc1cc(Nc2cc(N3CCN(C)CC3)nc(Sc3ccc(NC(=O)C4CC4)cc3)n2)n[nH]1` equal to or greater than 9%?
label 1

Also need `CCOc1cc2ncc(C#N)c(Nc3ccc(F)c(Cl)c3)c2cc1NC(=O)C=CCN(C)C` , thanks.
label 0

Also need `CN1CCC(CNc2ccc3ncc(-c4cccc(OC(F)(F)F)c4)n3n2)CC1` , thanks.
label 0

Also need `COc1cc(C(=O)N2CCC(N3CCN(C)CC3)CC2)ccc1Nc1ncc2c(n1)N(C)c1ccccc1C(=O)N2C` , thanks.
label 0

Also need `CC[C@H]1CN2CCc3cc(OC)c(OC)cc3[C@H]2C[C@@H]1C[C@@H]1NCCc2cc(OC)c(OC)cc21` , thanks.
label 0

Also need `CC(=O)OCC(=O)[C@@]1(O)[C@H](C)C[C@H]2[C@@H]3C=C(C)C4=Cc5c(cnn5-c5ccccc5)C[C@]4(C)[C@@H]3[C@@H](O)C[C@@]21C` , thanks.
label 0

Also need `Nc1ccc(C(=O)c2cc3c(ccc4ccccc43)[nH]2)cc1` , thanks.
label 1

Also need `COc1cccc(-c2ccc(NC(=O)C3=C(C(=O)O)CCC3)c(F)c2)c1` , thanks.
label 1

---

Assay: qHTS profiling for inhibitors of Plasmodium falciparum (3D7) proliferation (AID 743322);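 further: infected erythrocytes exposed to compound for 72 h before lysis; 100% = DMSO vehicle wells and 0% = 0.29 µM artemisinin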
Conditions: P. falciparum 3D7 proliferation; at 28.7 µM (top of the series)
Method: Plasmodium falciparum is a virulent malarial parasite that kills 1-2 million people worldwide each year. […] Because mature erythrocytes lack DNA, only Plasmodium-derived DNA is detected. The SYBR Green viability assay was adapted from a method described previously (Plouffe et al., 2008). […] The following morning, fluorescence intensity at 485(14) nm excitation and 535(25) nm emission wavelengths was measured on an EnVision (Perkin Elmer) plate reader. […]
Below is a list of entries, each paired with its recorded remaining parasite growth % (stronger effect = lower value) value.
Field: numeric (%). Do not append units.

COc1ccc(OC)c(-c2nnc3ccc(-c4ccc(OC)c(O[C@@H]5CCOC5)c4)nn23)c1 ... -0.0314
COc1cc2c(Nc3ccc(NC(=O)c4ccccc4)cc3)ncnc2cc1OCCCN1CCOCC1 ... 2.34
CN(C)CCCN=c1c2ccccc2n(C)c2[nH]c(=O)n(C)c(=O)c12 ... 5.55

What measured remaining parasite growth % (stronger effect = lower value) goes with `CC(=O)Nc1sc2c(c1-c1nc3ccccc3s1)CNC2` ?
100

---

Below is a list of entries, each paired with its recorded Potency value.
Test: qHTS of pediatric cancer cell lines to identify multiple opportunities for drug repurposing: Primary screen for A673 cells (AID 1347092); further: potency means the concentration at half of the fitted maximal effect; nearly all actives have a fitted effect of over 45% in size
Conditions: A673 Ewing sarcoma viability, CellTiter-Glo ATP luminescence, 48 h; series mostly up to 46 µM
Experimental: Drug repurposing or repositioning has been offered as a strategy for drug development in oncology programs. […] We employed a titration-based paradigm (quantitative high-throughput screening or qHTS), where all compounds were tested at multiple concentrations for their effect on cell viability. […] Shen, M et al. Quantitative high-throughput phenotypic screening of pediatric cancer cell lines identifies multiple opportunities for drug repurposing. […]
Inconclusive results are not listed. Calls of active or inactive are those of the source. The call rests on the fitted dose curve; in most records, active means well fitted cell-killing curve with a large enough effect; inconclusive means small, poorly fitted or top-dose-only effect; inactive means no such curve, though single readings can be large or run the other way.

C=CC(=O)Nc1cc2c(Nc3ccc(F)c(Cl)c3)ncnc2cc1C#CC(C)(C)N1CCN(C)CC1 ... 1.48 µM (active)
Cc1nc(N)ncc1-c1nc(N2CCOCC2)c2sc(C(C)(C)O)cc2n1 ... 1.18 µM (active)
C=CC(=O)N1CCC[C@@H](n2nc(-c3ccc(Oc4ccccc4)cc3)c3c(N)ncnc32)C1 ... 9.35 µM (active)
C=CCn1c(=O)c2cnc(Nc3ccc(N4CCN(C)CC4)cc3)nc2n1-c1cccc(C(C)(C)O)n1 ... 0.0743 µM (active)

What measured Potency goes with `OCCCNc1cc(-c2ccnc(Nc3cccc(Cl)c3)n2)ccn1` ?
0.0469 µM (active)

---

Assay: qHTS of pediatric cancer cell lines to identify multiple opportunities for drug repurposing: Confirmatory screen for A673 cells (AID 1347110);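 further: cells exposed to compound for 48 h before the viability read; nearly all actives have a fitted effect of over 65% in size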
Details: A673 Ewing sarcoma cell viability; series mostly up to 45.9 µM
Records with an inconclusive call do not appear. Activity calls are given as the source filed them. Calls come from the whole dose curve; as a rule, active = well fitted cell-killing curve with a large enough effect; inconclusive = small, poorly fitted or top-dose-only effect; inactive = flat fitted curve, though single readings scatter.
Pick one and only one: active, inactive

Use these answered entries as a reference point.
CC[C@@H]1C(=O)N(C)c2cnc(Nc3ccc(C(=O)NC4CCN(C)CC4)cc3OC)nc2N1C1CCCC1 ... active
CCNC(=O)Nc1ccc2ncc(Nc3ccc(C)cc3)nc2n1 ... inactive
O=C(C=Cc1cccnc1)NCCCCC1CCN(C(=O)c2ccccc2)CC1 ... inactive
COc1cc2c(Oc3ccc(NC(=O)C4(C(=O)Nc5ccc(F)cc5)CC4)cc3F)ccnc2cc1OCCCN1CCOCC1 ... active
COc1c(OCCCN2CCOCC2)ccc2c3n(c(=NC(=O)c4cnc(N)nc4)nc12)CCN3 ... active
CN(c1ncccc1CNc1nc(Nc2ccc3c(c2)CC(=O)N3)ncc1C(F)(F)F)S(C)(=O)=O ... active
CCn1nnc2c(N3CCOCC3)nc(-c3ccc(NC(=O)Nc4ccc(C(=O)N5CCN(C)CC5)cc4)cc3)nc21 ... active
COc1ccc(-n2nc(C(N)=O)c3c2C(=O)N(c2ccc(N4CCCCC4=O)cc2)CC3)cc1 ... inactive
CCN1CCN(Cc2ccc(-c3cc4c(N[C@H](C)c5ccccc5)ncnc4[nH]3)cc2)CC1 ... active
Cc1cc(Nc2cc(N3CCN(C)CC3)nc(Sc3ccc(NC(=O)C4CC4)cc3)n2)n[nH]1 ... active

In this assay, the call recorded for `CC(C)CC(=O)Nc1n[nH]c2c1CN(C(=O)C1CCN(C)CC1)C2(C)C` was what?
active

Also need `COc1ccc(OC)c(-c2nnc3ccc(-c4ccc(OC)c(O[C@@H]5CCOC5)c4)nn23)c1` , thanks.
active

Also need `C[C@@H](Oc1cc(-n2cnc3ccc(CN4CCN(C)CC4)cc32)sc1C(N)=O)c1ccccc1C(F)(F)F` , thanks.
active

Also need `CNC(=O)c1ccc(N2C(=S)N(c3cnc(C#N)c(C(F)(F)F)c3)C(=O)C23CCC3)cc1F` , thanks.
inactive

Also need `Cc1ccc2nc(NC(=O)CSc3nc4c(c(=O)n3-c3ccccc3)SCC4)sc2c1` , thanks.
active

Also need `O=C(Nc1ncc(-c2cc(C(F)F)nn2-c2c(Cl)cccc2Cl)s1)C1CC1` , thanks.
active

Also need `Cc1cc(Nc2cc(NC(=O)c3c(Cl)cccc3Cl)ccn2)nc(N)n1` , thanks.
active

Also need `CN[C@H]1CCc2cc(OC)c(OC)c(OC)c2-c2ccc(OC)c(=O)cc21` , thanks.
active

Also need `OCCCNc1cc(-c2ccnc(Nc3cccc(Cl)c3)n2)ccn1` , thanks.
active
